measured_on: Recombinant human his-tagged IGF R extracellular domain protein (human) (UniProt P08069)
assay_notes: SPR, Ab captured via anti-huIgG Fc, pH 7.4
property_name: pKd
One number for each entry, as −log10 of the molar value.

- VRDN-02044 (antibody, V domains shown) VH: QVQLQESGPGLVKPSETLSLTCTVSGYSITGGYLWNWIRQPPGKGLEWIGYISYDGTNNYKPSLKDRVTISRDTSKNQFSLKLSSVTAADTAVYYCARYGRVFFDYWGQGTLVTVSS VL: DIVMTQSPLSLPVTPGEPASISCRSSQSIVHSNGNTYLQWYLQKPGQSPQLLIYHVSNRLYGVPDRFSGSGSGTDFTLKISRVEAEDVGVYYCFQGSHVPWTFGQGTKVEIK: 9.26
- VRDN-02021 (antibody, V domains shown) VH: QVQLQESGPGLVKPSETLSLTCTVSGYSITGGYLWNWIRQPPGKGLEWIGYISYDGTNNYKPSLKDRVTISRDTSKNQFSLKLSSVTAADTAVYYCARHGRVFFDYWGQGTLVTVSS VL: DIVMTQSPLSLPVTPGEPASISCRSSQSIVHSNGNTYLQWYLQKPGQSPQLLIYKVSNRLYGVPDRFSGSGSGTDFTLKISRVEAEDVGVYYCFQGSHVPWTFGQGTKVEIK: 9.06
- VRDN-02048 (antibody, V domains shown) VH: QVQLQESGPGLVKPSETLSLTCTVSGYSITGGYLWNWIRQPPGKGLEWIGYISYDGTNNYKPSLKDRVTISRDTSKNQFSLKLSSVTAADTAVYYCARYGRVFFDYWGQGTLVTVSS VL: DIVMTQSPLSLPVTPGEPASISCRSSQSIVHSNGNTYLQWYLQKPGQSPQLLIYKVSNHLYGVPDRFSGSGSGTDFTLKISRVEAEDVGVYYCFQGSHVPWTFGQGTKVEIK: 9.26

Provide pKd for all items below, preserving their order.
1. VRDN-02075 (antibody, V domains shown) VH: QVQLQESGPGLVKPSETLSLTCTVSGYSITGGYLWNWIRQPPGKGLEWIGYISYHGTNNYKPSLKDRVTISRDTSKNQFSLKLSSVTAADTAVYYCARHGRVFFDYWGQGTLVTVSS VL: DIVMTQSPLSLPVTPGEPASISCRSHQSIVHSNGNTYLQWYLQKPGQSPQLLIYKVSNRLYGVPDRFSGSGSGTDFTLKISRVEAEDVGVYYCFQGSHVHWTFGQGTKVEIK
2. VRDN-02071 (antibody, V domains shown) VH: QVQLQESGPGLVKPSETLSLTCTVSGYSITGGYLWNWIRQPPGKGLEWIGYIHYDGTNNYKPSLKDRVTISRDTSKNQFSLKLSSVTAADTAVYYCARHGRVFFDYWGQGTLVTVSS VL: DIVMTQSPLSLPVTPGEPASISCRSHQSIVHSNGNTYLQWYLQKPGQSPQLLIYKVSNRLYGVPDRFSGSGSGTDFTLKISRVEAEDVGVYYCFHGSHVPWTFGQGTKVEIK
3. VRDN-02053 (antibody, V domains shown) VH: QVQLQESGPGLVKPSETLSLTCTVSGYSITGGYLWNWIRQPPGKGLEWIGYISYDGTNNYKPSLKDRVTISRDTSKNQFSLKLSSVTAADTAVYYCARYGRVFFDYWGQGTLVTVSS VL: DIVMTQSPLSLPVTPGEPASISCRSSQSIVHSNGNTYLQWYLQKPGQSPQLLIYKVSNRLYGVPDRFSGSGSGTDFTLKISRVEAEDVGVYYCFQHSHVPWTFGQGTKVEIK
4. VRDN-02011 (antibody, V domains shown) VH: QVQLQESGPGLVKPSETLSLTCTVSGYSITGGYLWHWIRQPPGKGLEWIGYISYDGTNNYKPSLKDRVTISRDTSKNQFSLKLSSVTAADTAVYYCARYGRVFFDYWGQGTLVTVSS VL: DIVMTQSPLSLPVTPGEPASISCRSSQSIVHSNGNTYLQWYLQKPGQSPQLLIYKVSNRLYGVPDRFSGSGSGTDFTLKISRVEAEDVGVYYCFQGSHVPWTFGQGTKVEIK

Solution:
1. 9.63
2. 9.99
3. 8.14
4. 9.36

Could you tell me pKd for each of these binders? They are listed below.
1. VRDN-02074 (antibody, V domains shown) VH: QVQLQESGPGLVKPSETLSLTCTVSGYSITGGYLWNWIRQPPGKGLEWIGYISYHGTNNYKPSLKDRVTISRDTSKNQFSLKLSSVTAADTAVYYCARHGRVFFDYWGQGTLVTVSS VL: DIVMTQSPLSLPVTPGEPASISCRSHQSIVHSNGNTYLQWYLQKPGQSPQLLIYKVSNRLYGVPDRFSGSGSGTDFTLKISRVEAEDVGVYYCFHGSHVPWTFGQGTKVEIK
2. VRDN-02047 (antibody, V domains shown) VH: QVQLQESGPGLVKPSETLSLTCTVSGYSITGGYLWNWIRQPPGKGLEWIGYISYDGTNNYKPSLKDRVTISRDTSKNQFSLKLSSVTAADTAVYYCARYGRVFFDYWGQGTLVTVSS VL: DIVMTQSPLSLPVTPGEPASISCRSSQSIVHSNGNTYLQWYLQKPGQSPQLLIYKVSHRLYGVPDRFSGSGSGTDFTLKISRVEAEDVGVYYCFQGSHVPWTFGQGTKVEIK

Solution:
1: 9.52; 2: 9.21

Problem: Fill in: pKd of VRDN-02042 (antibody, V domains shown) VH: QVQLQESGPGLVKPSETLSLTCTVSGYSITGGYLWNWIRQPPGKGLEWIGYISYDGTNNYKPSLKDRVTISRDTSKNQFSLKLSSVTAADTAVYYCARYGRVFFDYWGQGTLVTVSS VL: DIVMTQSPLSLPVTPGEPASISCRSSQSIVHSNGNTYHQWYLQKPGQSPQLLIYKVSNRLYGVPDRFSGSGSGTDFTLKISRVEAEDVGVYYCFQGSHVPWTFGQGTKVEIK is ___
Solution: 9.15
